- Tested on: Staphylococcus aureus
- method description: Antibacterial activity against Staphylococcus aureus ATCC 29213 = CCM 4223 assessed as inhibition of bacterial growth incubated for 24 hrs in presence of BSA by microdilution assay
- Format: functional
For each record, write down the corresponding log10 MIC.
// do not treat as linear: log10 of MIC, unit µg/mL

These recorded examples may help you get a feel for the data.
Look up log10 MIC: CCCCCOP(=O)(CCN(CCCN)CCCN)OCCCCCCCCCCOP(=O)(CCN(CCCN)CCCN)OCCCCC.Cl.Cl.Cl.Cl.Cl.Cl (stereo not given)
0.90

And then CCC/C=C\CCOP(=O)(CCN(CCCNC(=N)N)CCCNC(=N)N)OCCCCCCOP(=O)(CCN(CCCNC(=N)N)CCCNC(=N)N)OCC/C=C\CCC.Cl.Cl.Cl.Cl.Cl.Cl (stereo not given) , what is it?
0.30

And then Cl.Cl.Cl.Cl.Cl.Cl.NCCCN(CCCN)CCP(=O)(OCCCCCCCCOP(=O)(CCN(CCCN)CCCN)OCCc1ccccc1)OCCc1ccccc1 (stereo not given) , what is it?
1.51

Lab note: each compound below needs its log10 MIC filled in.
1. CCCC/C=C\CCOP(=O)(CCN(CCCN)CCCN)OCCCOP(=O)(CCN(CCCN)CCCN)OCC/C=C\CCCC.Cl.Cl.Cl.Cl.Cl.Cl (stereo not given)
2. Cl.Cl.Cl.Cl.Cl.Cl.NCCCN(CCCN)CCP(=O)(OCCCCCCCCCCCCOP(=O)(CCN(CCCN)CCCN)OCCc1ccccc1)OCCc1ccccc1 (stereo not given)
3. CCCCCCCCCCOP(=O)(CCN(CCCN)CCCN)OCCCOP(=O)(CCN(CCCN)CCCN)OCCCCCCCCCC.Cl.Cl.Cl.Cl.Cl.Cl (stereo not given)
4. CCCCC/C=C\CCOP(=O)(CCN(CCCN)CCCN)OCCCOP(=O)(CCN(CCCN)CCCN)OCC/C=C\CCCCC.Cl.Cl.Cl.Cl.Cl.Cl (stereo not given)
5. CC(C)COP(=O)(CCN(CCCN)CCCN)OCCCCCCCCCCCCOP(=O)(CCN(CCCN)CCCN)OCC(C)C.Cl.Cl.Cl.Cl.Cl.Cl (stereo not given)
6. CCCCCCCCCOP(=O)(CCN(CCCN)CCCN)OCCOCc1ccc(OC)cc1.Cl.Cl.Cl (stereo not given)

1: 1.51; 2: 0.30; 3: 0.00; 4: 0.60; 5: 1.20; 6: 2.11

Look up log10 MIC: CCCCOP(=O)(CCN(CCCN)CCCN)OCCCCCCCCCCOP(=O)(CCN(CCCN)CCCN)OCCCC.Cl.Cl.Cl.Cl.Cl.Cl (stereo not given)
1.20

====

- Tested on: Staphylococcus epidermidis
- method description: Antibacterial activity against Staphylococcus epidermidis CCM 7221 assessed as inhibition of bacterial growth incubated for 24 hrs by microdilution assay
- Format: functional
For each record, write down the corresponding MIC.

These recorded examples may help you get a feel for the data.
API: value(readout= MIC, system= Staphylococcus epidermidis, query= CCC/C=C\CCOP(=O)(CCN(CCN)CCN)OCCCCCCCOP(=O)(CCN(CCN)CCN)OCC/C=C\CCC.Cl.Cl.Cl.Cl.Cl.Cl (centres undefined) )
0.5 µg/mL

And then Cl.Cl.Cl.Cl.Cl.Cl.N=C(N)NCCCN(CCCNC(=N)N)CCP(=O)(OCCCCCCCOP(=O)(CCN(CCCNC(=N)N)CCCNC(=N)N)OCCCC(F)(F)F)OCCCC(F)(F)F (centres undefined) , what is it?
8 µg/mL

Lab note: each compound below needs its MIC filled in.
1. Cl.Cl.Cl.Cl.Cl.Cl.NCCCN(CCCN)CCP(=O)(OCCCCCOP(=O)(CCN(CCCN)CCCN)OCC12CC3CC(CC(C3)C1)C2)OCC12CC3CC(CC(C3)C1)C2 (centres undefined)
2. Cl.Cl.Cl.Cl.Cl.Cl.NCCCN(CCCN)CCP(=O)(OCCCCCCCCCCCCOP(=O)(CCN(CCCN)CCCN)OCCc1ccccc1)OCCc1ccccc1 (centres undefined)

1. 2 µg/mL
2. 0.5 µg/mL

====

For each record, write down the corresponding MIC.
- Tested on: Staphylococcus aureus
- method description: microbe, parasite or virus in culture
- condition: 4880/C, 24 h
- Description: Antibacterial activity against wild type Staphylococcus aureus 4880/C assessed as reduction in microbial growth incubated for 24 hrs by microdilution assay
One number for each entry, in µg/mL.

Look up MIC: CC1(C)S[C@@H]2[C@H](NC(=O)[C@H](N)c3ccccc3)C(=O)N2[C@H]1C(=O)O
0.5

And then O=C(N[C@H](CO)[C@H](O)c1ccc([N+](=O)[O-])cc1)C(Cl)Cl , what is it?
2

And then CCCCCCCCOP(=O)(CCN(CCCN)CCCN)OCCCCCCOP(=O)(CCN(CCCN)CCCN)OCCCCCCCC.Cl.Cl.Cl.Cl.Cl.Cl (stereo unspecified) , what is it?
0.5

And then CCCCCCCCOP(=O)(CCN(CCCN)CCCN)OCCCCOP(=O)(CCN(CCCN)CCCN)OCCCCCCCC.Cl.Cl.Cl.Cl.Cl.Cl (stereo unspecified) , what is it?
1

And then Cc1onc(-c2ccccc2)c1C(=O)N[C@@H]1C(=O)N2[C@@H]1SC(C)(C)[C@@H]2C(=O)O , what is it?
0.25

Next:
Look up MIC: CCCCCCOP(=O)(CCN(CCCNC(=N)N)CCCNC(=N)N)OCCCCCCCCOP(=O)(CCN(CCCNC(=N)N)CCCNC(=N)N)OCCCCCC.Cl.Cl.Cl.Cl.Cl.Cl (stereo unspecified)
0.5

====

For each record, write down the corresponding HC50 at 3 h.
- method description: Hemolytic activity in human RBC assessed as haemoglobin release measured after 3 hr
- Assay type: toxicity, cell-based, Erythrocyte
- condition: red blood cells (erythrocytes)

Look up HC50 at 3 h: CCCCOP(=O)(CCN(CCCN)CCCN)OCCCCCCCCCCOP(=O)(CCN(CCCN)CCCN)OCCCC.Cl.Cl.Cl.Cl.Cl.Cl (stereo not drawn)
> 500 µg/mL

And then CCCCCCCCOP(=O)(CCN(CCCN)CCCN)OCCCOP(=O)(CCN(CCCN)CCCN)OCCCCCCCC.Cl.Cl.Cl.Cl.Cl.Cl (stereo not drawn) , what is it?
> 500 µg/mL

And then CCCC/C=C\CCOP(=O)(CCN(CCCN)CCCN)OCCCOP(=O)(CCN(CCCN)CCCN)OCC/C=C\CCCC.Cl.Cl.Cl.Cl.Cl.Cl (stereo not drawn) , what is it?
> 200 µg/mL

And then CCC/C=C\CCOP(=O)(CCN(CCCNC(=N)N)CCCNC(=N)N)OCCCCCCOP(=O)(CCN(CCCNC(=N)N)CCCNC(=N)N)OCC/C=C\CCC.Cl.Cl.Cl.Cl.Cl.Cl (stereo not drawn) , what is it?
> 500 µg/mL

Lab note: each compound below needs its HC50 at 3 h filled in.
1. Cl.Cl.Cl.Cl.Cl.Cl.NCCN(CCN)CCP(=O)(OCCCCCCOP(=O)(CCN(CCN)CCN)OCCc1ccccc1)OCCc1ccccc1 (stereo not drawn)
2. CCCCCOP(=O)(CCN(CCN)CCN)OCCCCCCCCOP(=O)(CCN(CCN)CCN)OCCCCC.Cl.Cl.Cl.Cl.Cl.Cl (stereo not drawn)
3. CC/C=C\CCCOP(=O)(CCN(CCCN)CCCN)OCCCCCCOP(=O)(CCN(CCCN)CCCN)OCCC/C=C\CC.Cl.Cl.Cl.Cl.Cl.Cl (stereo not drawn)
4. CCCCCCOP(=O)(CCN(CCCN)CCCN)OCCCCCCCCOP(=O)(CCN(CCCN)CCCN)OCCCCCC.Cl.Cl.Cl.Cl.Cl.Cl (stereo not drawn)

> 200 µg/mL
> 200 µg/mL
> 200 µg/mL
> 500 µg/mL

====

- Tested on: Staphylococcus aureus
- method description: Antibacterial activity against methicillin resistant Staphylococcus aureus 4591/A assessed as reduction in microbial growth incubated for 24 hrs by microdilution assay
- Assay type: functional
So basically every entry gets a class from its MIC, ranges being bin A = under 1 µg/mL, bin B = from 1 µg/mL up to 8 µg/mL, bin C = 8 µg/mL and over

A selection of reference data follows.
Into which category would you place CCCCOP(=O)(CCN(CCCN)CCCN)OCCCCCCCCOP(=O)(CCN(CCCN)CCCN)OCCCC.Cl.Cl.Cl.Cl.Cl.Cl (stereo not drawn) ?
bin C

And then Cl.Cl.Cl.Cl.Cl.Cl.NCCCN(CCCN)CCP(=O)(OCCCOP(=O)(CCN(CCCN)CCCN)OCC1CCCC1)OCC1CCCC1 (stereo not drawn) , what is it?
bin C

Next:
Into which category would you place Cl.Cl.Cl.Cl.Cl.Cl.NCCCN(CCCN)CCP(=O)(OCCCCCCCOP(=O)(CCN(CCCN)CCCN)OCCCC(F)(F)F)OCCCC(F)(F)F (stereo not drawn) ?
bin C

And then CC/C=C\CCCOP(=O)(CCN(CCCN)CCCN)OCCCCCOP(=O)(CCN(CCCN)CCCN)OCCC/C=C\CC.Cl.Cl.Cl.Cl.Cl.Cl (stereo not drawn) , what is it?
bin C

And then CCCCCCOP(=O)(CCN(CCCN)CCCN)OCCCCCCCCOP(=O)(CCN(CCCN)CCCN)OCCCCCC.Cl.Cl.Cl.Cl.Cl.Cl (stereo not drawn) , what is it?
bin B

And then Cl.Cl.Cl.Cl.Cl.Cl.NCCCN(CCCN)CCP(=O)(OCCCCCCOP(=O)(CCN(CCCN)CCCN)OCCC12CC3CC(CC(C3)C1)C2)OCCC12CC3CC(CC(C3)C1)C2 (stereo not drawn) , what is it?
bin A

And then CCCCC/C=C\CCOP(=O)(CCN(CCCN)CCCN)OCCCOP(=O)(CCN(CCCN)CCCN)OCC/C=C\CCCCC.Cl.Cl.Cl.Cl.Cl.Cl (stereo not drawn) , what is it?
bin B

And then CCCCCCOP(=O)(CCN(CCCN)CCCN)OCCCCCCOP(=O)(CCN(CCCN)CCCN)OCCCCCC.Cl.Cl.Cl.Cl.Cl.Cl (stereo not drawn) , what is it?
bin C

The reported measurements were obtained from ChEMBL document CHEMBL5120927.
